Test system: COR-L 105
experimental-details: relative viability (nuclei count vs DMSO), 5 days (fraction); higher = more cells survive
study-conditions: first compound 0.006325 µM
measured-parameter: relative viability
API note: the answer field is a bare number with no unit suffix.

| compound | tgt | value-observed |
| --- | --- | --- |
| CC(=O)O[C@@]12CO[C@@H]1C[C@H](O)[C@@]1(C)C(=O)[C@H](O)C3=C(C)[C@@H](OC(=O)[C@H](O)[C@@H](NC(=O)OC(C)(C)C)c4ccccc4)C[C@@](O)([C@@H](OC(=O)c4ccccc4)[C@H]21)C3(C)C [Docetaxel] + CC(=O)Nc1cccc(-n2c(=O)n(C3CC3)c(=O)c3c(Nc4ccc(I)cc4F)n(C)c(=O)c(C)c32)c1 [Trametinib] (partner 0.02 µM) | COR-L 105 | 0.339 |
| CC(=O)O[C@@]12CO[C@@H]1C[C@H](O)[C@@]1(C)C(=O)[C@H](O)C3=C(C)[C@@H](OC(=O)[C@H](O)[C@@H](NC(=O)OC(C)(C)C)c4ccccc4)C[C@@](O)([C@@H](OC(=O)c4ccccc4)[C@H]21)C3(C)C [Docetaxel] + CCNC(=O)c1noc(-c2cc(C(C)C)c(O)cc2O)c1-c1ccc(CN2CCOCC2)cc1 [Luminespib] (partner 0.01 µM) | COR-L 105 | 0.595 |
| CC(=O)O[C@@]12CO[C@@H]1C[C@H](O)[C@@]1(C)C(=O)[C@H](O)C3=C(C)[C@@H](OC(=O)[C@H](O)[C@@H](NC(=O)OC(C)(C)C)c4ccccc4)C[C@@](O)([C@@H](OC(=O)c4ccccc4)[C@H]21)C3(C)C [Docetaxel] + CC(C)C[C@H](NC(=O)[C@H](Cc1ccccc1)NC(=O)c1cnccn1)B(O)O [Bortezomib] (partner 0.002 µM) | COR-L 105 | 0.304 |

Q: Look up relative viability for this compound: CC(=O)O[C@@]12CO[C@@H]1C[C@H](O)[C@@]1(C)C(=O)[C@H](O)C3=C(C)[C@@H](OC(=O)[C@H](O)[C@@H](NC(=O)OC(C)(C)C)c4ccccc4)C[C@@](O)([C@@H](OC(=O)c4ccccc4)[C@H]21)C3(C)C [Docetaxel] + Nc1nc2[nH]cc(CCc3ccc(C(=O)N[C@@H](CCC(=O)O)C(=O)O)cc3)c2c(=O)[nH]1 [Pemetrexed] (partner 0.2 µM)
A: 0.492

----------
Test system: NCI-H1648
experimental-details: relative viability (nuclei count vs DMSO), 5 days (fraction); higher = more cells survive
study-conditions: first compound 0.005 µM
measured-parameter: relative viability
API note: the answer field is a bare number with no unit suffix.

Q: Find the measured relative viability: item COc1cc2nccc(Oc3ccc(NC(=O)Nc4cc(C)on4)c(Cl)c3)c2cc1OC [Tivozanib] + Nc1ncn([C@H]2C[C@H](O)[C@@H](CO)O2)c(=O)n1 [Decitabine] (partner 2 µM) , target or system NCI-H1648.
A: 0.467

Q: Find the measured relative viability: item Nc1ccn([C@@H]2O[C@H](CO)[C@@H](O)[C@@H]2O)c(=O)n1 [Cytarabine] + CC(=O)c1c(C)c2cnc(Nc3ccc(N4CCNCC4)cn3)nc2n(C2CCCC2)c1=O [Palbociclib] (partner 0.5 µM) , target or system NCI-H1648.
A: 0.29

Q: Find the measured relative viability: item Nc1ccn([C@@H]2O[C@H](CO)[C@@H](O)[C@@H]2O)c(=O)n1 [Cytarabine] + O=C(CCCCCCC(=O)Nc1ccccc1)NO [Vorinostat] (partner 1 µM) , target or system NCI-H1648.
A: 0.4

Q: Find the measured relative viability: item Nc1ccn([C@@H]2O[C@H](CO)[C@@H](O)[C@@H]2O)c(=O)n1 [Cytarabine] + Cc1cc(Nc2cc(N3CCN(C)CC3)nc(Sc3ccc(NC(=O)C4CC4)cc3)n2)n[nH]1 [Tozasertib] (partner 0.1 µM) , target or system NCI-H1648.
A: 0.456

----------
The following compounds are listed with their measured relative viability values.
Tested on: EKVX
experimental-details: relative viability (nuclei count vs DMSO), 5 days (fraction); higher = more cells survive
study-conditions: first compound 2.53 µM
API note: the answer field is a bare number with no unit suffix.

Solved cases (3 shown):
| compound | tgt | relative viability |
| --- | --- | --- |
| O=c1[nH]c2ccccc2n1C1CCN(CCCC(c2ccc(F)cc2)c2ccc(F)cc2)CC1 [Pimozide] + CCNC(=O)c1noc(-c2cc(C(C)C)c(O)cc2O)c1-c1ccc(CN2CCOCC2)cc1 [Luminespib] (partner 0.01 µM) | EKVX | 0.909 |
| O=c1[nH]c2ccccc2n1C1CCN(CCCC(c2ccc(F)cc2)c2ccc(F)cc2)CC1 [Pimozide] + Nc1ncn([C@H]2C[C@H](O)[C@@H](CO)O2)c(=O)n1 [Decitabine] (partner 2 µM) | EKVX | 0.349 |
| O=c1[nH]c2ccccc2n1C1CCN(CCCC(c2ccc(F)cc2)c2ccc(F)cc2)CC1 [Pimozide] + NC(=O)Nc1cc(-c2cccc(F)c2)sc1C(=O)N[C@H]1CCCNC1 [AZD7762] (partner 0.2 µM) | EKVX | 0.749 |

Q: Find the measured relative viability: item O=c1[nH]c2ccccc2n1C1CCN(CCCC(c2ccc(F)cc2)c2ccc(F)cc2)CC1 [Pimozide] + O=C(c1cc(Cc2n[nH]c(=O)c3ccccc23)ccc1F)N1CCN(C(=O)C2CC2)CC1 [Olaparib] (partner 8 µM) , target or system EKVX.
A: 0.854

----------
Test system: NCI-H441
experimental-details: relative viability (nuclei count vs DMSO), 5 days (fraction); higher = more cells survive
study-conditions: first compound 5 µM
The following compounds are listed with their measured relative viability values.
API note: the answer field is a bare number with no unit suffix.

| compound | measured-parameter | value-observed |
| --- | --- | --- |
| O=C(O)CCCCC(CCSCc1ccccc1)SCc1ccccc1 (stereo unspecified) [CPI-613] + O=C(CCCCCCC(=O)Nc1ccccc1)NO [Vorinostat] (partner 1 µM) | relative viability | 0.656 |
| O=C(O)CCCCC(CCSCc1ccccc1)SCc1ccccc1 (stereo unspecified) [CPI-613] + Cc1nc(Nc2ncc(C(=O)Nc3c(C)cccc3Cl)s2)cc(N2CCN(CCO)CC2)n1 [Dasatinib] (partner 0.075 µM) | relative viability | 0.581 |
| O=C(O)CCCCC(CCSCc1ccccc1)SCc1ccccc1 (stereo unspecified) [CPI-613] + COc1cccc2cc(-c3nc([C@H]4CC[C@H](C(=O)O)CC4)n4ncnc(N)c34)[nH]c12 [OSI-027] (partner 0.5 µM) | relative viability | 0.615 |
| O=C(O)CCCCC(CCSCc1ccccc1)SCc1ccccc1 (stereo unspecified) [CPI-613] + CS(=O)(=O)N1CCN(Cc2cc3nc(-c4cccc5[nH]ncc45)nc(N4CCOCC4)c3s2)CC1 [Pictilisib] (partner 1 µM) | relative viability | 0.498 |
| O=C(O)CCCCC(CCSCc1ccccc1)SCc1ccccc1 (stereo unspecified) [CPI-613] + CC(=O)c1c(C)c2cnc(Nc3ccc(N4CCNCC4)cn3)nc2n(C2CCCC2)c1=O [Palbociclib] (partner 0.5 µM) | relative viability | 0.222 |

Q: Find the measured relative viability: item O=C(O)CCCCC(CCSCc1ccccc1)SCc1ccccc1 (stereo unspecified) [CPI-613] + CC(=O)Nc1cccc(-n2c(=O)n(C3CC3)c(=O)c3c(Nc4ccc(I)cc4F)n(C)c(=O)c(C)c32)c1 [Trametinib] (partner 0.02 µM) , target or system NCI-H441.
A: 0.426

----------
Tested on: SW 900
experimental-details: relative viability (nuclei count vs DMSO), 5 days (fraction); higher = more cells survive
study-conditions: first compound 0.05 µM
The following compounds are listed with their measured relative viability values.
API note: the answer field is a bare number with no unit suffix.

| compound | measured-parameter | value-observed |
| --- | --- | --- |
| COc1cc2nccc(Oc3ccc(NC(=O)Nc4cc(C)on4)c(Cl)c3)c2cc1OC [Tivozanib] + COc1cc2c(Oc3ccc(NC(=O)C4(C(=O)Nc5ccc(F)cc5)CC4)cc3F)ccnc2cc1OCCCN1CCOCC1 [Foretinib] (partner 0.25 µM) | relative viability | 0.733 |

Q: Look up relative viability for this compound: COc1cc2nccc(Oc3ccc(NC(=O)Nc4cc(C)on4)c(Cl)c3)c2cc1OC [Tivozanib] + NC(=O)Nc1cc(-c2cccc(F)c2)sc1C(=O)N[C@H]1CCCNC1 [AZD7762] (partner 0.2 µM)
A: 0.675

Q: Look up relative viability for this compound: Nc1ccn([C@@H]2O[C@H](CO)[C@@H](O)[C@@H]2O)c(=O)n1 [Cytarabine] + O=C(c1cc(Cc2n[nH]c(=O)c3ccccc23)ccc1F)N1CCN(C(=O)C2CC2)CC1 [Olaparib] (partner 8 µM)
A: 0.413

Q: Look up relative viability for this compound: COc1cc2nccc(Oc3ccc(NC(=O)Nc4cc(C)on4)c(Cl)c3)c2cc1OC [Tivozanib] + CC(=O)Nc1cccc(-n2c(=O)n(C3CC3)c(=O)c3c(Nc4ccc(I)cc4F)n(C)c(=O)c(C)c32)c1 [Trametinib] (partner 0.02 µM)
A: 1.04
